Species: Oryctolagus cuniculus
protocol.details: Inhibition of rabbit plasma Lp-PLA2 at 1 microM by liquid scintillation counting
Assay type: cell-free
reported.property: inhibition (%)

These recorded examples may help you get a feel for the data.
O=c1nc(SCc2ccc(F)cc2)n(Cc2nccn2Cc2ccc(-c3ccc(C(F)(F)F)cc3)cc2)c2c1CCC2 ... 80
O=c1nc(SCc2ccc(F)cc2)n(Cc2nncn2Cc2ccc(-c3ccc(C(F)(F)F)cc3)cc2)c2c1CCC2 ... 95
O=c1nc(SCc2ccc(F)cc2)n(Cc2nccn2Cc2ccc(-c3ccc(Cl)cc3)cc2)c2c1CCC2 ... 2
CCN(CC)CCn1c(-c2ccc(-c3ccc(C(F)(F)F)cc3)cc2)cnc1Cn1c(SCc2ccc(F)cc2)nc(=O)c2c1CCC2 ... 16

[I] CCn1c(Cn2c(SCc3ccc(F)cc3)nc(=O)c3c2CCC3)nnc1-c1ccc(-c2ccc(C(F)(F)F)cc2)cc1
[II] CCCCCCCCCCCCn1ccnc1Cn1c(SCc2ccc(F)cc2)nc(=O)c2c1CCC2
Which value of inhibition is smaller, the one for I or the one for II ? Lab note: record the label of whichever item you select. I

----------
Species on record: Homo sapiens
protocol.details: Inhibition of human plasma Lp-PLA2 at 1 nM by liquid scintillation counting
Type: cell-free
reported.property: inhibition (%)

[I] CN(Cc1ccc(F)cc1)Cc1nnc(Cn2c(SCc3ccc(F)cc3)nc(=O)c3c2CCC3)n1Cc1ccc(-c2ccc(C(F)(F)F)cc2)cc1
[II] CC(=O)NCc1nnc(Cn2c(SCc3ccc(F)cc3)nc(=O)c3c2CCC3)n1Cc1ccc(-c2ccc(C(F)(F)F)cc2)cc1
Given I and II , report the one with the higher recorded inhibition. Lab note: record the label of whichever item you select. I

[a] O=c1nc(SCc2ccc(F)cc2)n(Cc2ncc(CN3CCCC3)n2Cc2ccc(-c3ccc(C(F)(F)F)cc3)cc2)c2c1CCC2
[b] O=c1nc(SCc2ccc(F)cc2)n(Cc2ncc(CN3CCCCC3)n2Cc2ccc(-c3ccc(C(F)(F)F)cc3)cc2)c2c1CCC2
Which value of inhibition is smaller, the one for a or the one for b ? Lab note: record the label of whichever item you select. a

[1] CCN(CC)Cc1nnc(Cn2c(SCc3ccc(F)cc3)nc(=O)c3c2CCC3)n1Cc1ccc(-c2ccc(C(F)(F)F)cc2)cc1
[2] CN(Cc1nnc(Cn2c(SCc3ccc(F)cc3)nc(=O)c3c2CCC3)n1Cc1ccc(-c2ccc(C(F)(F)F)cc2)cc1)C1CC1
Given 1 and 2 , report the one with the higher recorded inhibition. Lab note: record the label of whichever item you select. 1

----------
Species: Homo sapiens
protocol.details: Inhibition of human plasma Lp-PLA2 at 1 nM by liquid scintillation counting
Assay type: cell-free
reported.property: inhibition (%)

These recorded examples may help you get a feel for the data.
CN(C)C1CCN(Cc2nnc(Cn3c(SCc4ccc(F)cc4)nc(=O)c4c3CCC4)n2Cc2ccc(-c3ccc(C(F)(F)F)cc3)cc2)CC1 ... 57
CCN(CC)CCN(Cc1ccc(-c2ccc(C(F)(F)F)cc2)cc1)C(=O)Cn1c(SCc2ccc(F)cc2)nc(=O)c2c1CCC2 ... 80

[1] CCS(=O)(=O)NCc1nnc(Cn2c(SCc3ccc(F)cc3)nc(=O)c3c2CCC3)n1Cc1ccc(-c2ccc(C(F)(F)F)cc2)cc1
[2] C[N+](C)(C)Cc1nnc(Cn2c(SCc3ccc(F)cc3)nc(=O)c3c2CCC3)n1Cc1ccc(-c2ccc(C(F)(F)F)cc2)cc1
Given 1 and 2 , report the one with the higher recorded inhibition. Lab note: record the label of whichever item you select. 2

[1] COC(=O)C(C)(C)N1CCN(Cc2nnc(Cn3c(SCc4ccc(F)cc4)nc(=O)c4c3CCC4)n2Cc2ccc(-c3ccc(C(F)(F)F)cc3)cc2)CC1
[2] O=c1nc(SCc2ccc(F)cc2)n(Cc2ncc(C[N+]3(Cc4ccc(F)cc4)CCCC3)n2Cc2ccc(-c3ccc(C(F)(F)F)cc3)cc2)c2c1CCC2
Given 1 and 2 , report the one with the higher recorded inhibition. Lab note: record the label of whichever item you select. 2
(2: 79%, 1: 45%)

----------
Species on record: Homo sapiens
protocol.details: Inhibition of human plasma Lp-PLA2 at 1 nM by liquid scintillation counting
Assay type: cell-free
reported.property: inhibition (%)

CCN1CCN(Cc2nnc(Cn3c(SCc4ccc(F)cc4)nc(=O)c4c3CCC4)n2Cc2ccc(-c3ccc(C(F)(F)F)cc3)cc2)CC1 ... 64
CN(C)Cc1cnc(Cn2c(SCc3ccc(F)cc3)nc(=O)c3c2CCC3)n1Cc1ccc(-c2ccc(C(F)(F)F)cc2)cc1 ... 54
O=c1nc(SCc2ccc(F)cc2)n(Cc2nnc(C3CC3)n2Cc2ccc(-c3ccc(C(F)(F)F)cc3)cc2)c2c1CCC2 ... 68
